# subject.of.test: Histamine H3 receptor (Rattus norvegicus)
# Sequence (Q9QYN8 whole entry): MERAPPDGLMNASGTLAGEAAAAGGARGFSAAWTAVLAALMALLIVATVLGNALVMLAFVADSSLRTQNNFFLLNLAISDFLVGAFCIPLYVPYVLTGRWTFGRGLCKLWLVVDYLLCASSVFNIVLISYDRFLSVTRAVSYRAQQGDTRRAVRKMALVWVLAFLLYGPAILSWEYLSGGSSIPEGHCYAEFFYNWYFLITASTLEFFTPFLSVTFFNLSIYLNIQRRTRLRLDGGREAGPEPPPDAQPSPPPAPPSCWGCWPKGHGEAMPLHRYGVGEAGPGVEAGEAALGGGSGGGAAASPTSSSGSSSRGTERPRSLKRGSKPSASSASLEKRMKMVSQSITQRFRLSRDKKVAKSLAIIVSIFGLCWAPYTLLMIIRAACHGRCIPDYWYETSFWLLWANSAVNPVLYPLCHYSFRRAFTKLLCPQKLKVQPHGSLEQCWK
# procedure.text: Binding affinity for the rat cortical Histamine H3 receptor
readout: log10 Ki (log10 of the value in nM)
Base-10 log of Ki, unit nM.

>  <molecule.smiles>
CCOC(=O)N1CCN(CCCOc2ccc(C(=O)Cc3ccccc3)cc2)CC1

>  <subject.of.test>
Histamine H3 receptor (Rattus norvegicus)

>  <log10 Ki>
1.84

$$$$
>  <molecule.smiles>
CCCCCC(=O)c1ccc(OCCCN2CCN(C(=O)OCC)CC2)cc1

>  <subject.of.test>
Histamine H3 receptor (Rattus norvegicus)

>  <log10 Ki>
0.14

$$$$

Incoming: Name the recorded log10 Ki of the item CCCCCC(=O)c1ccc(OCCCN2CCN(C(=O)c3cnco3)CC2)cc1 in your answer.
Outgoing: 1.65

Incoming: Name the recorded log10 Ki of the item CCOC(=O)N1CCN(CCCOc2ccc(C(=O)c3cccc(C)c3)cc2)CC1 in your answer.
Outgoing: 2.46

----------
# subject.of.test: Histamine H3 receptor (Rattus norvegicus)
Ki by entry:
The reply should be a number in nM, with the unit left off.

Worked cases, Ki given:
>  <molecule.smiles>
CCCCCC(=O)c1ccc(OCCCN2CCN(Cc3nccs3)CC2)cc1

>  <subject.of.test>
Histamine H3 receptor (Rattus norvegicus)

>  <measurement.units>
nM

>  <Ki>
16.6

$$$$
>  <molecule.smiles>
CCCCCC(=O)c1ccc(OCCCN2CCN(C(=O)CCC)CC2)cc1

>  <subject.of.test>
Histamine H3 receptor (Rattus norvegicus)

>  <measurement.units>
nM

>  <Ki>
6.46

$$$$

Could you now look at the following compound, please?
Incoming: Give Ki for CCOC(=O)N1CCN(CCCOc2ccc(C(=O)c3ccc(C(C)(C)C)cc3)cc2)CC1 tested on Histamine H3 receptor (Rattus norvegicus).
Outgoing: 13.2

----------
These molecules were tested on Histamine H3 receptor (Rattus norvegicus); Ki is the recorded read-out.
The reply should be a number in nM, with the unit left off.

>  <molecule.smiles>
CCCC(=O)c1ccc(OCCCN2CCN(C(=O)OCC)CC2)cc1

>  <readout>
Ki

>  <test.result>
3.63

$$$$
>  <molecule.smiles>
CCOC(=O)N1CCN(CCCOc2ccc(C(=O)c3ccc(F)cc3)cc2)CC1

>  <readout>
Ki

>  <test.result>
67.6

$$$$

Could you now look at the following molecule, please?
Incoming: Give Ki for CCCCCC(=O)c1ccc(OCCCN2CCN(C(=O)N3CCOCC3)CC2)cc1 tested on Histamine H3 receptor (Rattus norvegicus).
Outgoing: 5.89
